Recorded GI50 values for a group of molecules are listed next.
- Tested on: MCF7
- experiment_notes: Growth inhibition of human MCF7 cells after 48 hrs by SRB assay
- Type: functional
- test_conditions: MCF7, 48 h
Kindly answer with a numeric value in µg/mL, unit omitted.

[
  {
    "cpd_smiles": "C=C(C)[C@@H]1CC[C@]2(CO)CC[C@]3(C)[C@H](CC[C@@H]4[C@@]5(C)CC[C@H](NC(=O)[C@H](C)[C@@H](OC)[C@@H]6CCCN6C(=O)C[C@@H](OC)[C@H]([C@@H](C)CC)N(C)C(=O)[C@@H](NC(=O)[C@H](C(C)C)N(C)C)C(C)C)C(C)(C)[C@@H]5CC[C@]43C)[C@@H]12",
    "GI50 / µg/mL": 0.7
  }
]

Pending molecule:
Lab book: GI50 of C=C(C)[C@@H]1CC[C@]2(CN)CC[C@]3(C)[C@H](CC[C@@H]4[C@@]5(C)CC[C@H](OC(C)=O)C(C)(C)[C@@H]5CC[C@]43C)[C@@H]12 noted as 1.8

* * *

Reported GI50 is given for each of the following compounds.
- Tested on: MCF7
- experiment_notes: Growth inhibition of human MCF7 cells after 48 hrs by SRB assay
- Format: functional
- test_conditions: MCF7, 48 h
Write down the numeric answer in µg/mL and omit the unit.

Example results:
[
  {
    "cpd_smiles": "C=C(C)[C@@H]1CC[C@]2(COC(C)=O)CC[C@]3(C)[C@H](CC[C@@H]4[C@@]5(C)CC[C@@H](N)C(C)(C)[C@@H]5CC[C@]43C)[C@@H]12",
    "GI50 [µg/mL]": 2.1
  },
  {
    "cpd_smiles": "C=C(C)[C@@H]1CC[C@]2(CNC(=O)[C@H](C)[C@@H](OC)[C@@H]3CCCN3C(=O)C[C@@H](OC)[C@H]([C@@H](C)CC)N(C)C(=O)[C@@H](NC(=O)[C@H](C(C)C)N(C)C)C(C)C)CC[C@]3(C)[C@H](CC[C@@H]4[C@@]5(C)CC[C@H](O)C(C)(C)[C@@H]5CC[C@]43C)[C@@H]12",
    "GI50 [µg/mL]": 0.4
  }
]

Here's the next entry for you.
The recorded GI50 for CC[C@H](C)[C@@H]([C@@H](CC(=O)N1CCC[C@H]1[C@H](OC)[C@@H](C)C(=O)NCCN1C(=O)[C@]23CCC(C)(C)C1[C@@H]2[C@H]1CC[C@@H]2[C@@]4(C)CC[C@H](O)C(C)(C)[C@@H]4CC[C@@]2(C)[C@]1(C)CC3)OC)N(C)C(=O)[C@@H](NC(=O)[C@H](C(C)C)N(C)C)C(C)C is 0.21

* * *

- System: MCF7
- experiment_notes: Growth inhibition of human MCF7 cells after 48 hrs by SRB assay
- Format: functional
- test_conditions: MCF7, 48 h
metric_name: GI50 (mg/L)
Express it in mg/L; write the number only.

[
  {
    "cpd_smiles": "C=C(C)[C@@H]1CC[C@]2(COC(C)=O)CC[C@]3(C)[C@H](CC[C@@H]4[C@@]5(C)CC/C(=N/O)C(C)(C)[C@@H]5CC[C@]43C)[C@@H]12",
    "measure_unit": "mg/L",
    "GI50": 5.9
  }
]

Alright, here's another molecule for you.
Reported GI50 ( CC[C@H](C)[C@@H]([C@@H](CC(=O)N1CCC[C@H]1[C@H](OC)[C@@H](C)C(=O)NCCN1C(=O)[C@]23CCC(C)(C)C1[C@@H]2[C@H]1CC[C@@H]2[C@@]4(C)CC[C@H](OC(C)=O)C(C)(C)[C@@H]4CC[C@@]2(C)[C@]1(C)CC3)OC)N(C)C(=O)[C@@H](NC(=O)[C@H](C(C)C)N(C)C)C(C)C ) = 3.6

* * *

- Test system: MCF7
- experiment_notes: Growth inhibition of human MCF7 cells after 48 hrs by SRB assay
- Assay type: functional
- test_conditions: MCF7, 48 h
metric_name: GI50 (µg/mL)

Example entries begin here.
[
  {
    "cpd_smiles": "C=C(C)[C@@H]1CC[C@]2(CNC(=O)[C@H](C)[C@@H](OC)[C@@H]3CCCN3C(=O)C[C@@H](OC)[C@H]([C@@H](C)CC)N(C)C(=O)[C@@H](NC(=O)[C@H](C(C)C)N(C)C)C(C)C)CC[C@]3(C)[C@H](CC[C@@H]4[C@@]5(C)CC[C@H](OC(C)=O)C(C)(C)[C@@H]5CC[C@]43C)[C@@H]12",
    "target_of_assay": "MCF7",
    "recorded_number": 3.6
  },
  {
    "cpd_smiles": "C=C(C)[C@@H]1CC[C@]2(COC(C)=O)CC[C@]3(C)[C@H](CC[C@@H]4[C@@]5(C)CC[C@H](N)C(C)(C)[C@@H]5CC[C@]43C)[C@@H]12",
    "target_of_assay": "MCF7",
    "recorded_number": 0.2
  }
]

P. C=C(CN)[C@@H]1CC[C@]2(CO)CC[C@]3(C)[C@H](CC[C@@H]4[C@@]5(C)CC[C@H](O)C(C)(C)[C@@H]5CC[C@]43C)[C@@H]12
Q. C=C(C)[C@@H]1CC[C@]2(/C=N/O)CC[C@]3(C)[C@H](CC[C@@H]4[C@@]5(C)CC[C@H](OC(C)=O)C(C)(C)[C@@H]5CC[C@]43C)[C@@H]12
input: Which one would you say has the larger GI50 value: P , or Q ? State the label of the item chosen.
output: Q
(Q: 4.5 µg/mL, P: 3.1 µg/mL)

* * *

Some compounds, each annotated with its measured GI50.
- System: MCF7
- experiment_notes: Growth inhibition of human MCF7 cells after 48 hrs by SRB assay
- Format: functional
- test_conditions: MCF7, 48 h
Write the value in µg/mL as a bare number.

[
  {
    "cpd_smiles": "C=C(CNC(=O)[C@H](C)[C@@H](OC)[C@@H]1CCCN1C(=O)C[C@@H](OC)[C@H]([C@@H](C)CC)N(C)C(=O)[C@@H](NC(=O)[C@H](C(C)C)N(C)C)C(C)C)[C@@H]1CC[C@]2(COC(C)=O)CC[C@]3(C)[C@H](CC[C@@H]4[C@@]5(C)CC[C@H](OC(C)=O)C(C)(C)[C@@H]5CC[C@]43C)[C@@H]12",
    "GI50 [µg/mL]": 6.3
  }
]

As a next step, examine the compound that follows.
For this compound ( C=C(CNC(=O)[C@H](C)[C@@H](OC)[C@@H]1CCCN1C(=O)C[C@@H](OC)[C@H]([C@@H](C)CC)N(C)C(=O)[C@@H](NC(=O)[C@H](C(C)C)N(C)C)C(C)C)[C@@H]1CC[C@]2(CO)CC[C@]3(C)[C@H](CC[C@@H]4[C@@]5(C)CC[C@H](O)C(C)(C)[C@@H]5CC[C@]43C)[C@@H]12 ), measured GI50 is 0.08

* * *

- Test system: MCF7
- experiment_notes: Growth inhibition of human MCF7 cells after 48 hrs by SRB assay
- Format: functional
- test_conditions: MCF7, 48 h
metric_name: GI50 (µg/mL)
Report only the number, with the unit µg/mL understood.

[
  {
    "cpd_smiles": "C=C(C)[C@@H]1CC[C@]2(COC(C)=O)CC[C@]3(C)[C@H](CC[C@@H]4[C@@]5(C)CC[C@H](NC(=O)[C@H](C)[C@@H](OC)[C@@H]6CCCN6C(=O)C[C@@H](OC)[C@H]([C@@H](C)CC)N(C)C(=O)[C@@H](NC(=O)[C@H](C(C)C)N(C)C)C(C)C)C(C)(C)[C@@H]5CC[C@]43C)[C@@H]12",
    "metric_name": "GI50",
    "measure_unit": "µg/mL",
    "recorded_number": 4.1
  }
]

// next entry
# GI50 (molecule: C=C(CNC(=O)[C@H](C)[C@@H](OC)[C@@H]1CCCN1C(=O)OC(C)(C)C)[C@@H]1CC[C@]2(CO)CC[C@]3(C)[C@H](CC[C@@H]4[C@@]5(C)CC[C@H](O)C(C)(C)[C@@H]5CC[C@]43C)[C@@H]12 ) is 9

* * *

- Test system: MCF7
- experiment_notes: Growth inhibition of human MCF7 cells after 48 hrs by SRB assay
- Assay type: functional
- test_conditions: MCF7, 48 h
metric_name: GI50

Guide cases for GI50, answers given:
[
  {
    "cpd_smiles": "C=C(C)[C@@H]1CC[C@]2(COC(C)=O)CC[C@]3(C)[C@H](CC[C@@H]4[C@@]5(C)CC[C@H](NC(=O)[C@H](C)[C@@H](OC)[C@@H]6CCCN6C(=O)OC(C)(C)C)C(C)(C)[C@@H]5CC[C@]43C)[C@@H]12",
    "GI50": "> 10 mg/L"
  },
  {
    "cpd_smiles": "C=C(CBr)[C@@H]1CC[C@]2(COC(C)=O)CC[C@]3(C)[C@H](CC[C@@H]4[C@@]5(C)CC[C@H](OC(C)=O)C(C)(C)[C@@H]5CC[C@]43C)[C@@H]12",
    "GI50": "> 10 mg/L"
  }
]

// next item, GI50 requested
Item: C=C(CN=[N+]=[N-])[C@@H]1CC[C@]2(COC(C)=O)CC[C@]3(C)[C@H](CC[C@@H]4[C@@]5(C)CC[C@H](OC(C)=O)C(C)(C)[C@@H]5CC[C@]43C)[C@@H]12 | GI50: > 10 mg/L
